// provenance: patent US5120752A

Target: 5-lipoxygenase (Rattus norvegicus, UniProt P12527)
Construct: 20,000×g supernatant from 1.5 million homogenized RBL-1 cells; endogenous in cells
Sequence (P12527 1-673): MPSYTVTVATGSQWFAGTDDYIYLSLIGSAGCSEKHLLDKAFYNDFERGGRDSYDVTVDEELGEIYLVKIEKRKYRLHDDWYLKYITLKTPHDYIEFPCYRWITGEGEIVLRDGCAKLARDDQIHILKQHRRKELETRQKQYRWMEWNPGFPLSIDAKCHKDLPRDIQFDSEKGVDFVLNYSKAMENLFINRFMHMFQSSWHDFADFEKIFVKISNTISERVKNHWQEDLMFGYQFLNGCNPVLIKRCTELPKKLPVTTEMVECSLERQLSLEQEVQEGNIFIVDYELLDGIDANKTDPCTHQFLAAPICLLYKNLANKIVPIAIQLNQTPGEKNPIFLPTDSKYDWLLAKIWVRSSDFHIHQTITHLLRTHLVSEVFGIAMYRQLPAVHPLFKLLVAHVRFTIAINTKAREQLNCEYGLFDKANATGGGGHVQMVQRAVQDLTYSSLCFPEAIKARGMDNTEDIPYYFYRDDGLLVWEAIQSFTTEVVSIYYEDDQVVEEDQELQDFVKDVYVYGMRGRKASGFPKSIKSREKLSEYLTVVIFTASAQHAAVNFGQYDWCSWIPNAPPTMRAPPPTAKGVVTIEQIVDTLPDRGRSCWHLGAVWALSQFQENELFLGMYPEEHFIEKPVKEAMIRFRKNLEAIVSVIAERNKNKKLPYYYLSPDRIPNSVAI
Assay: In vitro inhibition of 5-lipoxygenase (20,000×g supernatant from homogenized RBL-1 cells, radiolabeled arachidonic acid)
Conditions: 20,000×g supernatant of RBL-1 cells; triplicate; read-out: IC50 (in vitro inhibitory potency against 5-lipoxygenase)
quantity_measured: IC50 (nM)

1. COc1ccc(Oc2cccc([C@@H]3C[C@H]3CN(O)C(N)=O)c2)cc1 (relative stereo)
2. NC(=O)N(O)CC[C@@H]1C[C@H]1c1ccccc1 (relative stereo)
# input Field: entry with larger IC50 (options 1 / 2 ). I would appreciate it if you answered with the label of your choice.
# output 2
(2: 300 nM, 1: 100 nM)

====

System: leukotriene biosynthesis
Assay: Inhibition of leukotriene biosynthesis in vivo after oral administration, rat peritoneal anaphylaxis model
Conditions: 200 μmol/kg oral (gavage), 1 h before antigen challenge, read-out: % Inhibition of Leukotrienes at 200 μmol/kg oral dose
Quick list: inhibition in vivo at 200 µmol/kg per entry.
Note: unit % is implicit; provide only the numeric part.

Example results:
CC(=O)N(O)C(C)[C@@H]1C[C@H]1c1cc2ccccc2s1 (stereo partly shown)
73
NC(=O)N(O)C[C@@H]1C[C@H]1c1cc2ccccc2s1 (relative stereo)
68
CNC(=O)N(O)C(C)[C@@H]1C[C@H]1c1cccc(Oc2ccccc2)c1 (stereo partly shown)
81
Cc1ccc([C@@H]2C[C@H]2C(C)N(O)C(N)=O)cc1 (stereo partly shown)
82

# input What measured inhibition in vivo at 200 µmol/kg goes with Cc1ccc([C@@H]2C[C@H]2CN(O)C(N)=O)cc1 (relative stereo) ?
# output 100

# input Another molecule: CC(N(O)C(N)=O)[C@]1(C)C[C@H]1c1ccccc1 (stereo partly shown)
# output 90

# input Another molecule: NC(=O)N(O)C[C@H]1C[C@H]1c1ccccc1 (relative stereo)
# output 61

# input Another molecule: NC(=O)N(O)C[C@@H]1C[C@H]1CCc1ccccc1 (relative stereo)
# output 84
